# target under test: p53 Y220C mutant protein (amino acid residues 94-293) (Homo sapiens, UniProt P04637, Y220C)
# Construct: p53 Y220C mutant protein (amino acid residues 94-293)
# run description: Surface Plasmon Resonance (SPR) assay, Kd_kinetic
# Type: binding
# test settings: SPR, kinetic KD, p53 Y220C; read-out: SPR P53 Y220C KD kinetic
pKd: −log10 of the molar value.
# pKd per entry

Solved cases (10 shown):
CNC(=O)c1ccc(OC)c(NCC#Cc2nn3c(N[C@@H]4CCN(C)C[C@@H]4F)ccnc3c2SC(F)(F)F)c1	7.00 to 8.00
CCNC(=O)c1ccc(NCC#Cc2nc3c(N[C@@H]4CCN(C)C[C@@H]4F)cccn3c2CC(F)(F)F)c(OC)c1	7.00 to 8.00
COc1cc(C(=O)NC(C)C)ccc1NCC#Cc1nc2c(N[C@@H]3CCN(C)C[C@@H]3F)cccn2c1CC(F)(F)F	> 8.00
COc1cc(C(N)=O)ccc1NCC#Cc1nc2c(N[C@@H]3CCN(C)C[C@@H]3F)cccn2c1SC(F)(F)F	> 8.00
COc1ccc(C(=O)NC(C)C)cc1NCC#Cc1nc2c(N[C@@H]3CCN(C)C[C@@H]3F)cccn2c1SC(F)(F)F	> 8.00
COc1cc(S(C)(=O)=O)ccc1NCC#Cc1nc2c(NC3CCN(C)CC3)cc(N)cn2c1CC(F)(F)F	> 8.00
CNC(=O)c1ccc(OC)c(NCC#Cc2nc3c(N[C@@H]4C[C@H]5CC[C@H](N5)[C@@H]4F)cccn3c2SC(F)(F)F)c1	> 8.00
COC(=O)N1CCC(Nc2cccn3c(CC(F)(F)F)c(C#CCNc4ccc(S(C)(=O)=O)cc4OC)nc23)CC1	6.00 to 7.00
CNC(=O)c1ccc(OC)c(NCC#Cc2cc3c(N[C@@H]4CCN(C)C[C@@H]4F)nccn3c2SC(F)(F)F)n1	> 8.00
CNC(=O)c1ccc(NCC#Cc2nc3c(N[C@@H]4CN(C)C[C@@H]4F)cccn3c2SC(F)(F)F)c(OC)c1	> 8.00

Summary for this compound, CNC(=O)c1ccc(NCC#Cc2nc3c(NC4CCN(C)CC4)cccn3c2SC(F)(F)F)c(OC)c1 : pKd is > 8.00

Summary for this compound, CNC(=O)c1ccc(OC)c(NCC#Cc2nc3c(N[C@@H]4CCNC[C@@H]4F)cccn3c2SC(F)F)n1 : pKd is 7.00 to 8.00

Record summary for CNC(=O)c1ccc(NCC#Cc2nc3c(N[C@H]4CCn5nccc5C4)cccn3c2SC(F)(F)F)c(OC)c1 : reported pKd = 7.00 to 8.00

Record COC[C@@H](O)CN1CCC(Nc2cccn3c(CC(F)(F)F)c(C#CCNc4ccc(S(C)(=O)=O)cc4OC)nc23)CC1 . Reported pKd: 7.00 to 8.00

Short answer for CCc1cc(C(=O)NC)ccc1NCC#Cc1nc2c(N[C@@H]3CCN(C)C[C@@H]3F)cccn2c1CC(F)(F)F : pKd was > 8.00

Field pKd (entry COc1cc(S(C)(=O)=O)ccc1NCC#Cc1nc2c(N[C@@H]3C[C@H]4CC[C@H](N4)[C@@H]3F)cccn2c1SC(F)(F)F ) reads > 8.00

What the record says about CNC(=O)c1ccc(NCC#Cc2nc3c(N[C@@H]4C[C@H]5COC[C@@H]([C@@H]4F)N5C)cccn3c2SC(F)(F)F)c(OC)c1 : pKd is 7.00 to 8.00

Measured pKd of CNC(=O)c1ccc(NCC#Cc2nc3c(N[C@@H]4CCN(C)C[C@@H]4F)cccn3c2C(F)(F)C(F)(F)F)c(OC)c1 : 7.00 to 8.00

Per the records, this compound ( CNC(=O)c1ccc(OC)c(NCC#Cc2nc3c(N[C@@H]4CN(C)C[C@@H]4F)cccn3c2SC(F)(F)F)n1 ) has pKd equal to > 8.00

// sample CCc1c(C#CCNc2ccc(S(C)(=O)=O)cc2OC)nc2c(NC3CCN(C)CC3)cccn12 , its pKd was 7.00 to 8.00

Per the record, CNC(=O)c1ccc(NCC#Cc2nc3c(N[C@@H]4CCN(C)C[C@@H]4F)cccn3c2CC(F)(F)F)c(C(F)(F)F)c1 has pKd of 7.00 to 8.00

For record CCS(=O)(=O)c1ccc(NCC#Cc2nc3c(N[C@@H]4CCN(C)C[C@@H]4F)cccn3c2SC(F)(F)F)c(OC)c1 the listed pKd is > 8.00

----------
# target under test: p53 Y220C (Homo sapiens, UniProt P04637, Y220C)
# run description: Luciferase Reporter Assay (Luc), p53 response element, NClH1299 cells with inducible p53 Y220C
# Format: cell-based
# test settings: Emax; luciferase reporter, NClH1299 inducible p53 Y220C, 6 hour
test readout: Emax

Below, 3 compounds whose answers are already recorded.
C[C@H](O)CNC(=O)c1ccc(NCC#Cc2cc3c(N[C@@H]4CCNC[C@@H]4F)cccn3c2SC(F)(F)F)cc1	> 90%
CNC(=O)c1cnc(OC)c(NCC#Cc2cc3c(N[C@@H]4CCN(C)C[C@@H]4F)cccn3c2SC(F)(F)F)c1	> 90%
CNC(=O)c1ccc(NCC#Cc2cc3c(N[C@@H]4CCN(C)C[C@@H]4F)nccn3c2SC(F)(F)F)c(O)c1	> 90%

response.value for CNC(=O)c1ccc(NCC#Cc2cc3c(N[C@@H]4CCNC[C@@H]4F)nccn3c2SC(F)(F)F)cc1 (field: Emax) = > 90%

According to the records, this compound CNC(=O)c1ccc(OCCN(C)C)c(NCC#Cc2nc3c(N[C@@H]4CCOC[C@@H]4F)cccn3c2SC(F)(F)F)c1 displays Emax of 70 to 80%

# Emax of COc1cc2c(cc1NCC#Cc1cc3c(N[C@@H]4CCN(C)C[C@@H]4F)cccn3c1SC(F)(F)F)CNC2=O = > 90%

----------
# target under test: p53 Y220C (Homo sapiens, UniProt P04637, Y220C)
# run description: Luciferase Reporter Assay (Luc), p53 response element, NClH1299 cells with inducible p53 Y220C
# Type: cell-based
# test settings: Emax; luciferase reporter, NClH1299 inducible p53 Y220C, 6 hour
# Emax listing for each entry below

Below: 6 compounds and their reported Emax.
CNC(=O)c1cnc(OC)c(NCC#Cc2cc3c(N[C@@H]4CCN(C)C[C@@H]4F)nccn3c2SC(F)F)c1	> 90%
CN1CC[C@@H](Nc2cccn3c(SC(F)(F)F)c(C#CCNc4ccc(P(C)(C)=O)cn4)cc23)[C@@H](F)C1	80 to 90%
CNC(=O)c1ccc(OC)c(NCC#Cc2cn3c(N[C@@H]4CCN(C)C[C@@H]4F)cccc3c2SC(F)(F)F)c1	> 90%
CNC(=O)c1ccc(NCC#Cc2cc3c(N[C@@H]4CN(C)C[C@@H]4F)nccn3c2SC(F)(F)F)c(OC)c1	> 90%
COc1cc(P(C)(C)=O)ccc1NCC#Cc1cn2c(N[C@@H]3CCN(C)C[C@@H]3F)cccc2c1SC(F)F	80 to 90%
CNC(=O)c1ccc(OC)c(NCC#Cc2nc3c(N[C@@H]4CCNC[C@@H]4F)nccn3c2SC(F)(F)F)c1	80 to 90%

Now, please, on to the next compound.
So for CCNC(=O)c1ccc(NCC#Cc2cc3c(N[C@@H]4CCN(C)C[C@@H]4F)nccn3c2SC(F)(F)F)c(OC)c1 , the logged Emax turned out to be > 90%

----------
# target under test: p53 Y220C (Homo sapiens, UniProt P04637, Y220C)
# run description: Luciferase Reporter Assay (Luc), p53 response element, NClH1299 cells with inducible p53 Y220C
# Type: cell-based
# test settings: luciferase reporter, NClH1299 inducible p53 Y220C, 6 hour; read-out: Luc P53 Y220C AC50
test readout: AC50

Check out these entries, answers already filled in.
COC(=O)N1CCC(Nc2cccn3c(CC(F)(F)F)c(C#CCNc4ccc(S(C)(=O)=O)cc4OC)nc23)CC1	> 3 µM
CNC(=O)c1ccc(NCC#Cc2cn3c(N[C@@H]4CCN(C)C[C@@H]4F)cccc3c2SC(F)(F)F)c(OC)c1	< 0.75 µM
CNC(=O)c1ccc(NCC#Cc2nc3c(N[C@H]4CCC(=O)NC4)cccn3c2SC(F)(F)F)c(OC)c1	1.5 to 3 µM

# input for lookup
Sample CNC(=O)c1ccc(NCC#Cc2nc3c(N[C@@H]4CCN(C)C[C@@H]4F)cccn3c2CC(F)(F)F)c(OC)c1 , system: p53 Y220C (Homo sapiens, UniProt P04637, Y220C). Its AC50 is 0.75 to 1.5 µM

----------
The following compounds are listed with their measured ΔTm at 10 µM values.
# target under test: p53 Y220C mutant protein (amino acid residues 94-293) (Homo sapiens, UniProt P04637, Y220C)
# Construct: p53 Y220C mutant protein (amino acid residues 94-293)
# run description: Thermal Shift Assay (TSA), dTM
# Format: binding
# test settings: thermal shift, 10 uM compound; read-out: TSA P53 Y220C dTM (10 uM)

CNC(=O)c1ccc(OC)c(NCC#Cc2nc3c(N[C@@H]4CCN(C)C[C@@H]4F)cccn3c2CC(F)(F)F)n1	≥ 10 °C

Reported ΔTm at 10 µM ( CNC(=O)c1ccc(NCC#Cc2nc3c(N[C@@H]4CCOC[C@@H]4F)cccn3c2SC(F)(F)F)c(OC)c1 ) = 5 to 10 °C

What the record says about CNC(=O)c1ccc(NCC#Cc2nc3c(N[C@@H]4CCn5nccc5C4)cccn3c2SC(F)(F)F)c(OC)c1 : ΔTm at 10 µM is 5 to 10 °C

Reported ΔTm at 10 µM for CNC(=O)c1ccc(NCC#Cc2nc3c(N[C@@H]4CCN(C)C[C@@H]4F)cccn3c2SC(F)(F)F)cn1 was ≥ 10 °C

For record COc1cc(P(C)(C)=O)ccc1NCC#Cc1cc2c(N[C@@H]3CCN(C)C[C@@H]3F)nccn2c1SC(F)(F)F the listed ΔTm at 10 µM is ≥ 10 °C

Values from patent US20260374766A1
